# TGI per entry
Tested on: NCI-H23 lung
Experiment: NCI tumour cell line growth inhibition, 48 h

Solved cases below.
{"columns": ["Molecule", "Test target", "Value type", "Result"],
 "data": [
  ["O=C(CC(C(=O)c1ccsc1)c1cccs1)c1ccsc1 (centres undefined)", "NCI-H23 lung", "TGI", "> 100 µM"],
  ["Nc1nc(Cl)c(N)c(NCC2(CO)CC(O)C2)n1 (centres undefined)", "NCI-H23 lung", "TGI", "> 100 µM"],
  ["CCOC(=O)CC(=O)Nc1c(C(=O)OCC)sc2nc(SC)nc(Nc3ccc(OC)c(OC)c3)c12", "NCI-H23 lung", "TGI", "> 100 µM"]
]}

Switching to the query record.
What value of measured TGI is listed for COc1ccc([N+](=O)[O-])cc1[I+]c1cc([N+](=O)[O-])ccc1OC ?
> 100 µM
